Read-out record for Wee1-like protein kinase (Homo sapiens): Kd
The source made the active and inactive calls.

Answered examples (5):
- Structure: "Cn1c(=O)c(F)c(Nc2ccc(I)cc2F)c2c(=O)n(C[C@@H](O)CO)cnc21"
  Kd: "> 30 µM (inactive)"
- Structure: "CCc1cc2c(cc1N1CCC(N3CCOCC3)CC1)C(C)(C)c1[nH]c3cc(C#N)ccc3c1C2=O"
  Kd: "> 30 µM (inactive)"
- Structure: "NC[C@@](O)(c1ccc(Cl)cc1)c1ccc(-c2cn[nH]c2)cc1"
  Kd: "> 30 µM (inactive)"
- Structure: "Cc1c(NC(=O)OC[C@@H]2COCCN2)cn2ncnc(Nc3ccc4c(cnn4Cc4cccc(F)c4)c3)c12"
  Kd: "> 30 µM (inactive)"
- Structure: "C#Cc1cccc(Nc2ncnc3cc4c(cc23)OCCOCCOCCO4)c1"
  Kd: "> 30 µM (inactive)"

Exam item: Lab note: need Kd for `CN1CCN(c2nc(C3=C(c4c[nH]c5ccccc45)C(=O)NC3=O)c3ccccc3n2)CC1` on Wee1-like protein kinase (Homo sapiens), anyone have it?
Marked response: > 30 µM (inactive)

Exam item: Could you do the same for `COc1cc2ncnc(Nc3ccc(O)cc3)c2cc1OC` , please?
Marked response: > 30 µM (inactive)

Exam item: Could you do the same for `O=C(NOC[C@H](O)CO)c1ccc(F)c(F)c1Nc1ccc(I)cc1F` , please?
Marked response: > 30 µM (inactive)

Exam item: Could you do the same for `Cc1cc(Nc2nc(N[C@@H](C)c3ncc(F)cn3)ncc2Cl)n[nH]1` , please?
Marked response: > 30 µM (inactive)

###

Each item that follows carries a reported Kd.
- Measurement Target: Serine/threonine-protein kinase ULK1 (Homo sapiens, UniProt O75385); further: in the data inactive means no Kd found up to 30 µM
- Sequence (O75385 whole entry): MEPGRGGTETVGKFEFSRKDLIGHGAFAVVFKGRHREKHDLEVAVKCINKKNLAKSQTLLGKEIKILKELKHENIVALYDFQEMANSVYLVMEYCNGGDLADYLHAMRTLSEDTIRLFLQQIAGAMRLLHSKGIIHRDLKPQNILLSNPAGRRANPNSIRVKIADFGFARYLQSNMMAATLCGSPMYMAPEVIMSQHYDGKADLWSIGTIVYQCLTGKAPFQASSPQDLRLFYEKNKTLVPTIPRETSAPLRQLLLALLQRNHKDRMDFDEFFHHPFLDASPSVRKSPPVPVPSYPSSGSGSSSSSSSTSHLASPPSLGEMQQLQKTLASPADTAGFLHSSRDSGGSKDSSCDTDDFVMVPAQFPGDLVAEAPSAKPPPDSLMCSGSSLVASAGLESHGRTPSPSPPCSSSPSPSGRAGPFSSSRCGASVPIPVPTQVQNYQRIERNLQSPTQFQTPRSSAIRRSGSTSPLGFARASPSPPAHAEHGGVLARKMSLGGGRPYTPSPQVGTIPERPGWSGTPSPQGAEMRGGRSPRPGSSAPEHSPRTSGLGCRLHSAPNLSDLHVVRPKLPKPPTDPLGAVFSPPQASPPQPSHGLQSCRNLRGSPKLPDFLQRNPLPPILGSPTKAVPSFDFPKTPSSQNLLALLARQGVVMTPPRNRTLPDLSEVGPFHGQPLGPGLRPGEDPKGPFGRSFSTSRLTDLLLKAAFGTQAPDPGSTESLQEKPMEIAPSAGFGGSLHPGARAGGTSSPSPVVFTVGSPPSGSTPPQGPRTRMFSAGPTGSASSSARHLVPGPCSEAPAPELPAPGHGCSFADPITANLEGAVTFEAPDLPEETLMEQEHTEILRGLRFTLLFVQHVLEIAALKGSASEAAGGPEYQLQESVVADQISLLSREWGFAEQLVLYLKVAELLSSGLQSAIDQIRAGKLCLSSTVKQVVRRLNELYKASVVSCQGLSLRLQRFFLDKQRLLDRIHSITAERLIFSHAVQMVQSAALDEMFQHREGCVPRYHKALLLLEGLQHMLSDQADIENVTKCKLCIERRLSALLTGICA
The source made the active and inactive calls.

Answered examples (2):
- Structure: "Cn1cc(-c2[nH]c3cc(NC(=O)[C@H](N)C4CCCCC4)cc4c3c2C=NNC4=O)cn1"
  Kd: "> 30 µM (inactive)"
- Structure: "Cn1c(=O)c(F)c(Nc2ccc(I)cc2F)c2c(=O)n(C[C@@H](O)CO)cnc21"
  Kd: "> 30 µM (inactive)"

Exam item: Dear colleague, I am looking for the recorded Kd of the following compound: `CCc1nc(C(N)=O)c(Nc2ccc(N3CCC(N4CCN(C)CC4)CC3)c(OC)c2)nc1NC1CCOCC1`
Marked response: > 30 µM (inactive)

Exam item: Could you do the same for `S=C(NCc1ccc2c(c1)OCO2)N1CCN(c2ncnc3c2oc2ccccc23)CC1` , please?
Marked response: > 30 µM (inactive)
